Where do the numbers come from? From PubChem BioAssay (NCI).

Test system: NCI/ADR-RES ovarian
MEASUREMENT DESCRIPTION: NCI-60 one-dose screen, 48 h (100 = growth as untreated, 0 = no growth, -100 = all killed)
STATED CONDITIONS: 10 µM unless noted
About 83,000 compounds went through this panel and 20% of them were active in at least one assay; those are over-represented in the sample as a whole.
growth below 80% gives FALSE; growth at or above it gives TRUE.

Example entries and their recorded answers appear below.
COc1cc(C2CC(c3cccc(Nc4ccncc4)c3)=NN2c2ccc(Cl)cc2)cc(OC)c1OC (centres undefined) | FALSE
c1ccc2c(-c3c4ccsc4cc4[nH]c5ccccc5c34)c[nH]c2c1 | FALSE
O=C1c2ccccc2C(=O)c2c(NCCN=Cc3ccccc3O)cccc21 | FALSE
C=CCn1c(SCC(=O)Nc2ccc(C(=O)/C=C/c3cc(OC)c(OC)c(OC)c3)cc2)nnc1-c1cc(OC)c(OC)c(OC)c1 | FALSE

Input line: Assess whether reported growth for "O=C1Nc2cc(-c3ccncc3)ccc2/C1=C/c1ccc[nH]1" sits at 80% or higher.
Output line: TRUE

Input line: Assess whether reported growth for "Cc1ccccc1-c1cc(Cc2ccc(F)cc2)c(=O)[nH]n1" sits at 80% or higher.
Output line: TRUE

Input line: Assess whether reported growth for "COc1ccc(C2=C(c3ccccc3)c3ccc(OC(C)=O)cc3OC2(C)C)cc1" sits at 80% or higher.
Output line: FALSE

Input line: Assess whether reported growth for CC(C)Cc1ccc(C(C)C(=O)NCc2ccc(Cn3c(=O)sn(-c4ccc(Cl)cc4)c3=O)cc2)cc1 (centres undefined) sits at 80% or higher.
Output line: TRUE

Input line: Assess whether reported growth for "FC(F)(F)Oc1cccc(-c2cc(NCCCCCCNc3cc(-c4cccc(OC(F)(F)F)c4)nc4ccc(N5CCCC5)cc34)c3cc(N4CCCC4)ccc3n2)c1" sits at 80% or higher.
Output line: FALSE
